Biological target: T1, E. coli His6-LpxD (UDP-3-O-(R-3-hydroxyacyl)glucosamine N-acyltransferase) (E. coli, UniProt P21645 1-341)
T1 sequence (looked up): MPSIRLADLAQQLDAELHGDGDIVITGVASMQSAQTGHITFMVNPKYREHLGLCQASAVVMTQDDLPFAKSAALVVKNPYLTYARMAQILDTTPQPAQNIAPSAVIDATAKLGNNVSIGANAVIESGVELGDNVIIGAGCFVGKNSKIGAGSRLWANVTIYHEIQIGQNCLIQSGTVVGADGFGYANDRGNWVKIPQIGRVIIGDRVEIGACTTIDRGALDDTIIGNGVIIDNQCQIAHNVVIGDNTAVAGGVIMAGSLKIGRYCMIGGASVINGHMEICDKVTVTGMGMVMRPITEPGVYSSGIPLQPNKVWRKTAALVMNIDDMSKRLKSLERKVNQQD
Assay: fluorescence polarisation
Where no end group is shown, it is not given here.
In this section, each of the binders is paired with its reported Kd.
Answer in µM, number only, no unit symbol.

Recorded Kd (binder TNLYMLPKWDIP-NH2 [RJPXD33 (TNLYMLPKWDIP-NH2)] ): 6.5

// sample SENNFMLPLLPL-NH2 [RJPXD34 (SENNFMLPLLPL-NH2)] , its Kd was 31

Entry QHFMVPDINDMQ-NH2 [RJPXD31 (QHFMVPDINDMQ-NH2)] — recorded Kd = 41
